# TARGET: UniProt Q8NER1
# Sequence (Q8NER1 whole entry): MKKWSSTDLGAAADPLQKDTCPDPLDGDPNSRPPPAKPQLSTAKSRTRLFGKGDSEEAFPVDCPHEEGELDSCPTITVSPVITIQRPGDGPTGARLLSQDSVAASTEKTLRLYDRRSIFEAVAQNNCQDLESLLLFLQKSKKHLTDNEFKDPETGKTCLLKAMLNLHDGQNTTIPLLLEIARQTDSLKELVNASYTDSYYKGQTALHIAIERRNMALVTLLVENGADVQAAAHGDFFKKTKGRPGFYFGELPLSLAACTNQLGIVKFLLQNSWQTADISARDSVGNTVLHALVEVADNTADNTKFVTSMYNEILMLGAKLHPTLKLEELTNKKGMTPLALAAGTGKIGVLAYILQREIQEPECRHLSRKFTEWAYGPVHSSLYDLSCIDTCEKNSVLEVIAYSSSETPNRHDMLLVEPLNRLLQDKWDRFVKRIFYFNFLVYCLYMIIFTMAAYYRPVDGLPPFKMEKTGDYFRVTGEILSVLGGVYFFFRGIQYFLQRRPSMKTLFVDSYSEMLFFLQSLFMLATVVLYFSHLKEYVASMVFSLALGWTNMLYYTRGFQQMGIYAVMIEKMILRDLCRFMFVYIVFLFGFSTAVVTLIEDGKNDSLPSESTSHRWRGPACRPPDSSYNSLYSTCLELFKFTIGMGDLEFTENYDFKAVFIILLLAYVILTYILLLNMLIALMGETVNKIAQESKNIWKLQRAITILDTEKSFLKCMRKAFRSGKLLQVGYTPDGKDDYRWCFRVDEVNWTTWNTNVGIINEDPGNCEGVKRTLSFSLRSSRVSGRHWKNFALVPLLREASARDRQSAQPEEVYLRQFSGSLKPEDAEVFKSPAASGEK
# PROTOCOL_TEXT: Agonist activity at human recombinant TRPV1 expressed in HEK293 cells assessed as increase in intracellular calcium level by Fluo4-AM based assay
pEC50: −log10 of the molar value.
READOUT_LABEL: pEC50

Endpoint output: pEC50 of `O=C(CCCc1ccc(-c2cccnc2)s1)NCCc1ccc(O)c(O)c1` . Value?
< 5.00

Which pEC50 reading was recorded for the molecule `O=C(CCCc1ccccc1)NCCc1ccc(O)c(O)c1` ?
5.58

Would you kindly share the measured pEC50 for `O=C(CCCc1ccc(-c2cccnc2)s1)NCc1ccccc1` ?
< 5.00

I have this molecule here, `COc1ccc(CNC(=O)CCCc2ccc(-c3cccnc3)s2)cc1` , and I need its recorded pEC50.
< 4.30

Quick check: pEC50 of `O=C(CCCc1ccccc1)NCc1ccccc1` ?
< 4.30

Any idea what its pEC50 is? The molecule is `O=C(CCCc1ccc(I)s1)NCCc1ccc(O)c(O)c1`
5.94

====

List of pIC50 values.
# TARGET: Transient receptor potential cation channel subfamily A member 1 (Rattus norvegicus)
# Sequence (Q6RI86 whole entry): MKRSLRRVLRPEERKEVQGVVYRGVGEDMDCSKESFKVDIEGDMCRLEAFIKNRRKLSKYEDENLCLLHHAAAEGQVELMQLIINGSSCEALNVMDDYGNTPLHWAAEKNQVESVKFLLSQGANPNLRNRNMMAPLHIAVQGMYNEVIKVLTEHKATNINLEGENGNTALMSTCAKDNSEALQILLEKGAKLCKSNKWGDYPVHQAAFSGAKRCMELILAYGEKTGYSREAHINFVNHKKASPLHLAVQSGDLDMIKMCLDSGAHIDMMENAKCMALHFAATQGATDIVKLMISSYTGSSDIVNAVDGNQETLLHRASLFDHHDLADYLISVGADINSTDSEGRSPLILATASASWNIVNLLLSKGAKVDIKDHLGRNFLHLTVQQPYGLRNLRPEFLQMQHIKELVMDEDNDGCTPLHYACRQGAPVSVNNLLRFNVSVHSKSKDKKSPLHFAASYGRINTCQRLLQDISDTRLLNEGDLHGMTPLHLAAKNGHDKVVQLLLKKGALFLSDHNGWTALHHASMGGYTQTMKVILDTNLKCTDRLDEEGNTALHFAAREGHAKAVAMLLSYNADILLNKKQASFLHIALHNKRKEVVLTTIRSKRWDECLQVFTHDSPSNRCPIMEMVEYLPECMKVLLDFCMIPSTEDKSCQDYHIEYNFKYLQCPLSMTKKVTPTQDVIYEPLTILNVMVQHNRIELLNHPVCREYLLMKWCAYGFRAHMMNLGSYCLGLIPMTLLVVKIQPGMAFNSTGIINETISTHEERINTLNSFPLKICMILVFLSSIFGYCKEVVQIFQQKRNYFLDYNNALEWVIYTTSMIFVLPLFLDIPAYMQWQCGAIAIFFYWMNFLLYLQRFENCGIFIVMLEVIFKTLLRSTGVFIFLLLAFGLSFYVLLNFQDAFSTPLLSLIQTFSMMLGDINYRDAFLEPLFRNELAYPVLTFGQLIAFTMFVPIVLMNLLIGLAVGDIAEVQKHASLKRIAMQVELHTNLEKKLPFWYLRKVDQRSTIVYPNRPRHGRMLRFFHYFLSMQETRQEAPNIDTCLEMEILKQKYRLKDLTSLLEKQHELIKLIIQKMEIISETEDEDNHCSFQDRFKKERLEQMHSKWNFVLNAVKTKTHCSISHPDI
# PROTOCOL_TEXT: Antagonist activity at rat recombinant TRPA1 expressed in HEK293 cells assessed as desensitization by measuring inhibition of allyl isothiocyanate induced intracellular calcium accumulation preincubated for 5 mins followed by allyl isothiocyanate stimulation by Fluo4-AM based assay
pIC50: −log10 of the molar value.

Worked cases, pIC50 given:
1. O=C(CCCc1ccc(I)s1)NCc1ccc(Cl)c(Cl)c1	4.72
2. O=C(CCCc1ccc(-c2cccnc2)s1)Nc1ccc(O)cc1	< 4.00
3. O=C(CCCc1ccc(-c2ccccc2)s1)Nc1ccc(O)cc1	< 4.30

Record request: pIC50 value, item `O=C(CCCc1ccc(-c2ccccc2)s1)NCc1ccccc1`
< 4.00

What does the record list as pIC50 for `O=C(CCCc1ccc(I)s1)NCc1ccc(O)cc1` ?
< 4.00

Request the reported pIC50 associated with `O=C(CCCc1ccccc1)NCc1ccc(O)cc1`
< 4.00

Find the recorded pIC50 belonging to `COc1cc(CNC(=O)CCCc2ccccc2)ccc1O` and report it.
4.35

Which pIC50 value belongs to `O=C(CCCc1ccc(I)s1)NCCc1ccc(O)c(O)c1` ?
< 4.00

State the recorded pIC50 for this entry: `O=C(CCCc1cccs1)NCc1ccccc1`
< 4.00

Quick one: pIC50 for `O=C(CCCc1ccc(-c2cccnc2)s1)NCc1ccccc1` ?
< 4.00

Using the record for `O=C(CCCc1ccc(I)s1)NCc1ccccc1` , report its pIC50.
< 4.00

====

# TARGET: Transient receptor potential cation channel subfamily M member 8 (Rattus norvegicus, UniProt Q8R455)
# Sequence (Q8R455 whole entry): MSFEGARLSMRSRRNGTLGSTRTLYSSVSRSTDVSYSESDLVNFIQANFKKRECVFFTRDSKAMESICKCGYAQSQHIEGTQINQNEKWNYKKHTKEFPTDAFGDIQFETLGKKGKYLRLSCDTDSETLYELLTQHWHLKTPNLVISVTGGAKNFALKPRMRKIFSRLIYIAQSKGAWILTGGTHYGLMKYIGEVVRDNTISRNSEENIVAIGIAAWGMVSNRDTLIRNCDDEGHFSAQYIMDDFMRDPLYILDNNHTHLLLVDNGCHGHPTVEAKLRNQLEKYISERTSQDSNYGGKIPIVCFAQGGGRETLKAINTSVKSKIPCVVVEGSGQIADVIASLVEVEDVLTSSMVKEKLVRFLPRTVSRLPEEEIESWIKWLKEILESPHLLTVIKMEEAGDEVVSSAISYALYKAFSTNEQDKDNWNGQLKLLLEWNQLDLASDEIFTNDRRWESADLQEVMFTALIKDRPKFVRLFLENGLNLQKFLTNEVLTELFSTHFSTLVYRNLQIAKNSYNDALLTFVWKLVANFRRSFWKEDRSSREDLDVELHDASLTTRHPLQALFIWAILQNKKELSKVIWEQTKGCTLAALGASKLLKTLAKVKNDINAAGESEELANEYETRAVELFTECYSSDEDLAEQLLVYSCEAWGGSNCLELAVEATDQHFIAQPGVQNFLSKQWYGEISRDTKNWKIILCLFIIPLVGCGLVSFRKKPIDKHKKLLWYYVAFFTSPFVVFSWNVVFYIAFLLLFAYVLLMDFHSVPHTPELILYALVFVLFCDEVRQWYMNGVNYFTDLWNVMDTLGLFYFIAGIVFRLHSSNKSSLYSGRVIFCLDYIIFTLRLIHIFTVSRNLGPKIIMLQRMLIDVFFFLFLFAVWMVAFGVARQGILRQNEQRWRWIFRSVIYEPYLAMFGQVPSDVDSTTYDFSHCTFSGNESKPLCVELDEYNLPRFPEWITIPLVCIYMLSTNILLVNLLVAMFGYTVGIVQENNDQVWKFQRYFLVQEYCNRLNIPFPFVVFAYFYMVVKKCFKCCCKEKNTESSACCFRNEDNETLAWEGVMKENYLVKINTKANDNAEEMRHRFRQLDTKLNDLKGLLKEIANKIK
# PROTOCOL_TEXT: Antagonist activity at rat recombinant TRPM8 expressed in HEK293 cells assessed as desensitization by measuring inhibition of icilin induced intracellular calcium accumulation preincubated for 5 mins by Fluo4-AM based assay
READOUT_LABEL: IC50 (µM)
Numbers only here, please. The scale is µM.

1. COc1cc(CNC(=O)CCCc2ccc(I)s2)ccc1O	16.8

Attention now turns to another entry.
Field request: IC50 | item: `COc1cc(CNC(=O)CCCc2ccc(-c3ccccc3)s2)ccc1O`
13.8

====

# TARGET: UniProt Q6RI86
# PROTOCOL_TEXT: Agonist activity at rat recombinant TRPA1 expressed in HEK293 cells assessed as increase in intracellular calcium accumulation by Fluo4-AM based assay
pEC50: −log10 of the molar value.
READOUT_LABEL: pEC50

Illustrative cases are given below, each with its answer.
1) O=C(CCCc1ccc(-c2cccnc2)s1)NCc1ccc(Cl)c(Cl)c1	4.98
2) O=C(CCCc1ccc(I)s1)Nc1ccc(O)cc1	4.52
3) COc1cc(CNC(=O)CCCc2ccc(-c3ccccc3)s2)ccc1O	4.73

(P) O=C(CCCc1ccc(-c2cccnc2)s1)NCc1ccc(O)cc1
(Q) O=C(CCCc1ccccc1)NCc1ccc(Cl)c(Cl)c1
P or Q : whose pEC50 is greater? Kindly give the label for the entry you pick.
Q

(P) O=C(CCCc1ccc(-c2ccccc2)s1)NCc1ccc(Cl)c(Cl)c1
(Q) COc1cc(CNC(=O)CCCc2ccccc2)ccc1O
// task: argmin of pEC50 over [ P , Q ] Give the chosen item's label as your response.
Q

====

# TARGET: UniProtKB Q6RI86
# PROTOCOL_TEXT: Agonist activity at rat recombinant TRPA1 expressed in HEK293 cells assessed as increase in intracellular calcium accumulation by measuring efficacy by Fluo4-AM based assay relative to allyl isothiocyanate
# Type: cell-based
This section presents molecules with their documented Efficacy values.

1) O=C(CCCc1ccc(-c2cccnc2)s1)NCCc1ccc(O)c(O)c1	< 10%
2) O=C(CCCc1ccc(-c2cccnc2)s1)NCc1ccccc1	< 10%
3) COc1ccc(CNC(=O)CCCc2ccc(-c3cccnc3)s2)cc1	21%
4) O=C(CCCc1ccccc1)NCCc1ccc(O)c(O)c1	< 10%

Need Efficacy, item `O=C(CCCc1ccccc1)NCc1ccccc1`
< 10%

Record request: Efficacy value, item `O=C(CCCc1ccc(I)s1)NCCc1ccc(O)c(O)c1`
< 10%

====

# TARGET: Transient receptor potential cation channel subfamily A member 1 (Rattus norvegicus)
# PROTOCOL_TEXT: Antagonist activity at rat recombinant TRPA1 expressed in HEK293 cells assessed as desensitization by measuring inhibition of allyl isothiocyanate induced intracellular calcium accumulation preincubated for 5 mins followed by allyl isothiocyanate stimulation by Fluo4-AM based assay
pIC50: −log10 of the molar value.
READOUT_LABEL: pIC50

A selection of reference data follows.
1. O=C(CCCc1ccc(-c2ccccc2)s1)NCc1ccc(O)cc1	< 4.30
2. O=C(CCCc1ccccc1)NCCc1ccc(O)c(O)c1	< 5.00
3. COc1cc(CNC(=O)CCCc2ccc(I)s2)ccc1O	< 4.30

Any idea what its pIC50 is? The compound is `O=C(CCCc1ccccc1)Nc1ccc(O)cc1`
< 5.00
